Recorded values, source the Human Domainome abundance scans (Beltran et al. 2025).

I'd be grateful if you could share measured abundance fitness for these entries.
B1: Transcription elongation factor A N-terminal and central domain-containing protein, residues 30 to 77; numbered along this chain, Q8N8B7 (parent)
chain: LTELETIYVTKEHLQETDVVRAVYRVLKNCPSVALKKKAKCLLSKWKA

# Variants of: B1
# ASSAY_NOTES: abundance fitness (aPCA) (normalised: wild type 0, dead -1); higher = more abundant; growth selection in yeast, the domain comes from the species named
# REPORTED_CONDITIONS: Homo sapiens

Worked cases, abundance fitness given:
C41F; 0.005
D18F; 0.169
K11I; -0.08

Record abundance fitness per entry; entries follow.
1. P31H
2. K11N
3. K37P
4. E16R
5. K37I
6. I7Q
7. E3C

-- reply
1. -0.349
2. -0.627
3. -1.02
4. 0.123
5. -0.337
6. 0.015
7. 0.159

-- ask What does the data say about its abundance fitness? Entry: N29D
-- reply -0.193
